attribute.measured: melting point

Exercise: For the compound O=C(N[C@H](Cc1ccc(C(F)(F)F)cc1)[C@@H](O)c1ccc(F)cc1)OCc1ccccc1 (racemic) [Example 114] , report melting point.
Key: 151 to 152 °C

====

Each item that follows carries a reported melting point.

Exercise: For the compound CC(C)c1cccc(C[C@@H](NC(=O)c2ccc(F)c3ccccc23)[C@@H](O)c2ccc(F)cc2)c1 (racemic) , report melting point.
Key: 159 to 160 °C

Exercise: For the compound O=C(N[C@H](Cc1cccc(SC(F)(F)F)c1)[C@@H](O)c1ccc(F)cc1)c1ccc(F)c2ccccc12 (racemic) , report melting point.
Key: 192 to 193 °C

Exercise: For the compound O=C(N[C@H](Cc1cccc(OC(F)(F)C(F)F)c1)[C@@H](O)c1ccc(F)cc1)c1ccc(F)c2ccccc12 (racemic) , report melting point.
Key: 186 to 187 °C

Exercise: For the compound O=C(N[C@H](Cc1ccc(C(F)(F)F)cc1)[C@@H](O)c1ccc(F)cc1)c1cccc(Oc2ccccc2)c1 (racemic) , report melting point.
Key: 144 to 145 °C

Exercise: For the compound CC(C)C(F)(F)Cc1ccc(C[C@@H](NC(=O)OC(C)(C)C)[C@@H](O)c2cccc(Cl)c2)cc1 (racemic) , report melting point.
Key: 139 to 141 °C

Exercise: For the compound O=C(NC(Cc1ccc(C(F)(F)F)cc1)C(O)c1ccc(F)cc1)c1ccc(C(F)(F)F)cc1 (racemic) , report melting point.
Key: 167 to 169 °C

Exercise: For the compound O=C(NC(Cc1ccc(C(F)(F)F)cc1)C(O)c1ccc(F)cc1)C1CCCC1 (racemic) , report melting point.
Key: 139 to 155 °C

====

Structures can show the parent of a compound that is named as a salt.
attribute.measured: melting point

Cn1cc(C(=O)N[C@H](Cc2ccc(C(F)(F)F)cc2)[C@@H](O)c2ccc(F)cc2)c2ccccc21 (racemic) ... 129 to 131 °C
O=C(N[C@H](Cc1cccc(OC(F)(F)C(F)F)c1)[C@@H](O)c1csc(-c2ccccc2)n1)c1ccc(F)c2ccccc12 (racemic) ... 148 to 150 °C
CC(C)(C)c1ccc(C[C@@H](NC(=O)c2cccc3c(F)cccc23)[C@@H](O)c2ccc(F)cc2)cc1 (racemic) ... 148 to 149 °C

Exercise: For the compound COC(=O)CCC(=O)O[C@H](c1ccc(F)cc1)[C@H](Cc1cccc(OC(F)(F)C(F)F)c1)NC(=O)c1cccc2c1C=CCCC2 (racemic) (as salt: succinate) , report melting point.
Key: 170 to 171 °C

Exercise: For the compound O=C(CCc1ccccc1)N[C@H](Cc1ccc(C(F)(F)F)cc1)[C@@H](O)c1cccc(Oc2ccccc2)c1 (racemic) , report melting point.
Key: 134 to 135 °C

Exercise: For the compound O=C(N[C@H](Cc1cccc(OC(F)(F)C(F)F)c1)[C@@H](O)c1ccc(C(=O)N2CCCCC2)cc1)c1cccc2c1C=CCCC2 (racemic) , report melting point.
Key: 176 to 177 °C

Exercise: For the compound N#CC(c1ccc([C@H](O)[C@@H](Cc2cccc(OC(F)(F)C(F)F)c2)NC(=O)c2cccc3c2C=CCCC3)cc1)N1CCCCC1 (mixture of isomers) , report melting point.
Key: 152 to 154 °C

Exercise: For the compound O=C(N[C@H](Cc1cccc(CC(F)(F)C(F)F)c1)[C@@H](O)c1ccc(F)cc1)c1cccc2c(Cl)cccc12 (racemic) , report melting point.
Key: 174 to 175 °C

Exercise: For the compound O=C(N[C@H](Cc1cccc(OC(F)(F)C(F)F)c1)[C@@H](O)c1ccc(-c2ccc(Cl)cc2)cc1)c1cccc2c1C=CCCC2 (racemic) , report melting point.
Key: 167 to 168 °C

Exercise: For the compound O=C(N[C@H](Cc1cccc(Oc2ccccc2)c1)[C@@H](O)c1ccc(F)cc1)c1ccc(F)c2ccccc12 (racemic) , report melting point.
Key: 120 to 121 °C

Exercise: For the compound O=C(CCC1CCCC1)N[C@H](Cc1ccc(C(F)(F)F)cc1)[C@@H](O)c1ccc(F)cc1 (racemic) , report melting point.
Key: 169 to 170 °C

Exercise: For the compound O=C(N[C@H](Cc1ccc(C(F)(F)F)cc1)[C@@H](O)c1cccc2ccccc12)c1ccc(F)c2ccccc12 (racemic) , report melting point.
Key: 195 to 196 °C
